Source listed as patent US20220324970A1.

- tested.target: T1, human pIgR extracellular domain (ECD) (human, UniProt P01833 19-638)
- T1 construct: also called hpIgR ECD
- T1 sequence (P01833 other isoform, or with tags, fused parts or gaps): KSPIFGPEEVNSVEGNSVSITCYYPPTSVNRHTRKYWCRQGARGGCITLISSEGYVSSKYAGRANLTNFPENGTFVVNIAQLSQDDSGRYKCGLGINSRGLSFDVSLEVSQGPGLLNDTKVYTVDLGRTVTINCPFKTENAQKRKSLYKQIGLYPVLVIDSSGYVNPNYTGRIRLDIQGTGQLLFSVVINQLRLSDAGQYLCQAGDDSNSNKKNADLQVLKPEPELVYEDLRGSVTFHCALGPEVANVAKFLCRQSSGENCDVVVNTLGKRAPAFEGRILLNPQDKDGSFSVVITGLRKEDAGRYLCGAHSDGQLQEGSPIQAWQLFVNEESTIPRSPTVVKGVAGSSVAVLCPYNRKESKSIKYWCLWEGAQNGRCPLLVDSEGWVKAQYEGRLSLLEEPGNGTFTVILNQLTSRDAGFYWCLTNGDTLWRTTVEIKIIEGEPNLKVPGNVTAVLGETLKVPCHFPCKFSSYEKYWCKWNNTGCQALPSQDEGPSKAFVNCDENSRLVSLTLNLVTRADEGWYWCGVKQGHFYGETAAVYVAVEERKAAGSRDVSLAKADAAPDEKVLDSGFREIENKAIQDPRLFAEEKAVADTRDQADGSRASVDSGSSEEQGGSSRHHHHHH
- measurement.notes: BLI (Octet), VHH-mono-Fc and hpIgR ectodomain
Would you mind telling me the reported pKd of each entry?
Give bare numbers, as −log10 of the molar value.

binder | readout.value
VHH2-linker-mono-Fc protein (Fc fusion, also called VHH2-mono-Fc; mpIgR_338) EVQVVESGGGLVQAGGSLKLACAAPGLTFSSYRMGWFRQAPGQEREFVAAIDWNGRGTYYRYYADSVKGRSTISRDNAKNTVYLQMNSLKPEDTAVYYCAATTVLTDPRVLNEYATWGQGTQVTVSSEPKTPKPQPQPQLQPQPNPTTESKSPKSPAPELLGGPSVFLFPPKPKDTLMISRTPEVTCVVVDVSHEDPEVKFNWYVDGVEVHNAKTKPREEQYNSTYRVVSVLTVLHQDWLNGKEYKCKVSNKALPAPIEKTISKAKGQPREPQVYTKPPSREEMTKNQVSLSCLVKGFYPSDIAVEWESNGQPENNYKTTVPVLDSDGSFRLASYLTVDKSRWQQGNVFSCSVMHEALHNHYTQKSLSLSPGK | 7.68

Q: Reported pKd for VHH12-linker-mono-Fc protein (Fc fusion, made in CHO cells; also called VHH12-mono-Fc; hpIgR_266) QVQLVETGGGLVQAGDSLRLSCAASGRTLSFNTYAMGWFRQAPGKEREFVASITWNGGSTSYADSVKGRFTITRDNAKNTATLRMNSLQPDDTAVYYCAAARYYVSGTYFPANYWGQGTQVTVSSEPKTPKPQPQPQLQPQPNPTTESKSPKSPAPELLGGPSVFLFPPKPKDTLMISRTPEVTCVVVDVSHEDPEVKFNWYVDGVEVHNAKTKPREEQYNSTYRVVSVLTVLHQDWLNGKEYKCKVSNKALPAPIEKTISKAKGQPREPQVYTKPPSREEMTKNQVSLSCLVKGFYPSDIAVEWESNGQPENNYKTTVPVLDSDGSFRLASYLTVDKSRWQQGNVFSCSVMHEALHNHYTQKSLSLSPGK : what is it?
Result: 7.47
